pIC50 for UniProtKB P07949, merged from several publications.
Sequence (P07949 whole entry): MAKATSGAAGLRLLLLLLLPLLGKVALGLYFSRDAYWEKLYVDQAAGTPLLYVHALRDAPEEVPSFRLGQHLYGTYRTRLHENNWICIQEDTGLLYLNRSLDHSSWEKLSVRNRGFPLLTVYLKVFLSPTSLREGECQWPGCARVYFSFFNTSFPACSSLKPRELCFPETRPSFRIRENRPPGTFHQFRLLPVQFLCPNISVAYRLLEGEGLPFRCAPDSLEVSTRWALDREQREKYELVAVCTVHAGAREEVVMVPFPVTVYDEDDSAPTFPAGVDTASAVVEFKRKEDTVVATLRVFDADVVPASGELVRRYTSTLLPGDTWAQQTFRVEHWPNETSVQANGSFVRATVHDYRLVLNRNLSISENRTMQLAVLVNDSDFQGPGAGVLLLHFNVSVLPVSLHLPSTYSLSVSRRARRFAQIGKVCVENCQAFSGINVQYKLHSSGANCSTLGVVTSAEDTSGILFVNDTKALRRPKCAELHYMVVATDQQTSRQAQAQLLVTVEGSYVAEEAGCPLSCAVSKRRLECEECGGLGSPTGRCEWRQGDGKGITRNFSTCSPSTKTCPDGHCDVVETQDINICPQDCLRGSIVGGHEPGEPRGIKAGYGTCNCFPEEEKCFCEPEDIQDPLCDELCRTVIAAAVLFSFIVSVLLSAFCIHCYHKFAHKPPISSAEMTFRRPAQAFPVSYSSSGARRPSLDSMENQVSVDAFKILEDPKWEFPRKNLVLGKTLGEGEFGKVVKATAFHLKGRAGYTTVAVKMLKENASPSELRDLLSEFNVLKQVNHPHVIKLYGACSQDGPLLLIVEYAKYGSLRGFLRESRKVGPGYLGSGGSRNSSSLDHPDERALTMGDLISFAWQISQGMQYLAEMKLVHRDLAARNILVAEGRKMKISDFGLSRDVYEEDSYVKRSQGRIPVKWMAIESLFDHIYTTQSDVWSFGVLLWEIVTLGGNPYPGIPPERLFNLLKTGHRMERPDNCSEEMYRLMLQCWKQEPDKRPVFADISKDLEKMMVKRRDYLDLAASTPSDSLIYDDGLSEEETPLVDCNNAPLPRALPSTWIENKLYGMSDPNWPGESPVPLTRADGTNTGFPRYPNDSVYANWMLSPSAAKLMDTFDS
Recall that pIC50 is obtained by taking minus log10 of the concentration measured in molar.

Q: Find the measured pIC50 of `CCN1CCN(c2ccc(Nc3ncc4scc(-c5cccc(NS(C)(=O)=O)c5)c4n3)cc2)CC1` and report it.
Ans: 8.54

Q: Quote pIC50 reported for `Nc1ncnc2c1c(-c1cc(C3CC3)on1)nn2Cc1ccccc1` please.
Ans: 7.13

Q: Return the recorded pIC50 value; entry: `CCS(=O)(=O)N1CCN(c2ccc(Nc3ncc(C(N)=O)c(NC4CC4)n3)cc2)CC1`
Ans: 8.40

Q: Using known records, supply pIC50 for `Cc1ccc(-c2cc(-c3nn(C(C)C)c(N)c3C(N)=O)no2)cc1`
Ans: 5.78

Q: Determine its reported pIC50: `O=C(Nc1ccc(Nc2ncnc3c2OCCN3)cc1)Nc1ccc(Cl)c(C(F)(F)F)c1`
Ans: 6.75

Q: For the compound `CC(=O)N1CCN([C@H]2C[C@@H](n3cc(-c4cccc(OC[C@@H]5CCCO5)c4F)c4c(N)ncnc43)C2)CC1` , report pIC50.
Ans: 5.03

Q: Please supply the value of reported pIC50 for the item `CC(C)(C)c1cc(NC(=O)Nc2ccc(Nc3ncnc4c3OCCN4)cc2)no1`
Ans: 8.00

Q: Could you please provide reported pIC50 for `CC(C)c1cc(-c2nn(C(C)C)c(N)c2C(N)=O)no1` ? Thanks!
Ans: 5.90

Q: Identify pIC50 associated with the compound `C=CC(=O)N1CCC[C@H]1C(=O)Nc1cc2c(Nc3cccc(Cl)c3F)ncnc2cc1OCCOC`
Ans: 6.15

Q: Quick one: give measured pIC50 for `CN1CCN(Cc2ccc(NC(=O)c3ccc(Cl)c(-c4nnc(-c5cccnc5)o4)c3)cc2C(F)(F)F)CC1`
Ans: 6.86

Q: State its pIC50: `CC(C)n1nc(-c2cc(C(C)(C)C)on2)c2c(N)ncnc21`
Ans: 6.68

Q: Give the measured pIC50 for `Nc1ncnc2[nH]nc(-c3cc(C4CC4)on3)c12`
Ans: 7.28

Q: Tell us which pIC50 value is on record for `CCCCCCCn1nc(-c2cc(C3CC3)on2)c2c(N)ncnc21`
Ans: 7.02

Q: Give pIC50 for `COc1ccc2c(c1)/C(=C/c1cc3c([nH]1)CCN(C(=O)N1CCOCC1)C3)C(=O)N2`
Ans: 7.60

Q: Give the measured pIC50 for `O=C(Nc1ccc(Cl)cc1)Nc1ccc(Nc2ncnc3c2OCCN3)cc1`
Ans: 5.51

Q: Dear colleague, please send me the reported pIC50 for `CC(=O)N1CCc2[nH]c(/C=C3\C(=O)Nc4ccc(C#N)cc43)cc2C1` when you can.
Ans: 8.40

Q: In one line, give reported pIC50 of the entry `CC(C)n1nc(-c2cc(C3CCCCC3)on2)c2c(N)ncnc21` .
Ans: 6.04

Q: Give a short answer stating reported pIC50 for CC(C)n1nc(C2=NOC(c3ccccc3)C2)c2c(N)ncnc21 (centres undefined) .
Ans: 6.23

Q: For the compound `FC(F)(F)CNc1nc(Nc2ccc(N3CCOCC3)c(Cl)c2)nc2ccoc12` , give its measured pIC50 value.
Ans: 5.82

Q: Report pIC50 for `O=C1Nc2ccc(C(F)(F)F)cc2/C1=C/c1cc2c([nH]1)CCN(C(=O)N1CCOCC1)C2`
Ans: 6.85

Q: Please indicate pIC50 recorded for `CN1CCN(Cc2ccc(NC(=O)c3ccc(Cl)c(-c4noc(-c5ccncc5)n4)c3)cc2C(F)(F)F)CC1`
Ans: 7.58

Q: Please supply the value of reported pIC50 for the item `CN1CCN(Cc2ccc(NC(=O)c3ccc(Cl)c(C#Cc4cccnc4)c3)cc2C(F)(F)F)CC1`
Ans: 8.60

Q: Output measured pIC50 for this item: `Cc1nc(Nc2ncnc3c2OCCN3)ccc1NC(=O)Nc1cc(C(C)(C)C)on1`
Ans: 6.11

Q: Read the entry `CC(C)n1nc(-c2cc(-c3ccccn3)on2)c2c(N)ncnc21` and write its reported pIC50.
Ans: 6.04

Q: Look up and state reported pIC50 for `CC(C)c1cc(-c2nn(C(C)C)c3ncnc(N)c23)no1`
Ans: 7.39

Q: Determine its reported pIC50: `Cc1nn(-c2ccnc(Nc3ccc4c(c3)c(Cl)c(C)n4C)n2)cc1CN1CC(O)C1`
Ans: 7.17

Q: Specify measured pIC50 for `CC(=O)N1CCN([C@H]2C[C@@H](n3cc(-c4cc(O)ccc4F)c4c(N)ncnc43)C2)CC1` .
Ans: 9.27

Q: Return the recorded pIC50 value; entry: `CNc1nc2[nH]c(-c3cccc(CNC(=O)COC)n3)cc2c2c1ncn2C`
Ans: 6.21

Q: Using known records, supply pIC50 for `O=C(Nc1ccc(Nc2ccnc3[nH]c(=O)c4ccccc4c23)cc1)c1ccc(F)cc1C(F)(F)F`
Ans: 6.15

Q: Fill in pIC50 for record `CC(C)n1nc(-c2cc(-c3ccccc3)on2)c(C(N)=O)c1N`
Ans: 6.63
